I'd be grateful if you could share measured pKi for these entries.
# Measured on: 5-hydroxytryptamine receptor 1A (Rattus norvegicus, UniProt P19327)
# Sequence (P19327 whole entry): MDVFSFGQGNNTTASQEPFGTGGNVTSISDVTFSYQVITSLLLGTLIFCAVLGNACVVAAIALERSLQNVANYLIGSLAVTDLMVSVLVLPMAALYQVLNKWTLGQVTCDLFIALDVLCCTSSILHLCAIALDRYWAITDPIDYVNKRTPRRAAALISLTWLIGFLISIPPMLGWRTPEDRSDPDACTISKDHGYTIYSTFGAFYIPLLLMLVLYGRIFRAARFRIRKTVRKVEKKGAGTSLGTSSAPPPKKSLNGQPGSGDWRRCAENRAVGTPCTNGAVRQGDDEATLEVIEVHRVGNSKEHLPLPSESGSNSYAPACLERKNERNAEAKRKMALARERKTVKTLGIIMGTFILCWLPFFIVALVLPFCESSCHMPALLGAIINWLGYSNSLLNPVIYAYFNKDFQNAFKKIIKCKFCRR
Recall that pKi is obtained by taking minus log10 of the concentration measured in molar.

Lookup: Tell us which pKi value is on record for O=C(CCCN1CCC(C(=O)c2ccc(F)cc2)CC1)c1ccc(F)cc1
Found: 6.52

Lookup: Give the measured pKi for O=C1NCN(c2ccccc2)C12CCN(CCCCc1ccccc1)CC2
Found: 7.07

Lookup: Find the measured pKi of O=C1NCN(c2ccccc2)C12CCN(CCCCOc1ccccc1)CC2 and report it.
Found: 7.52

Lookup: Please supply the value of reported pKi for the item COc1ccc(OCCCN2CCC3(CC2)C(=O)NCN3c2ccccc2)cc1
Found: 6.35

Lookup: Given the compound O=C1NCN(c2ccccc2)C12CCN(CCc1ccccc1)CC2 , write its reported pKi.
Found: 5.99

Lookup: Return pKi (reported value) for this compound: O=C(CCCN1CCC2(CC1)C(=O)NCN2c1ccccc1)c1ccc(F)cc1
Found: 7.31

Lookup: Complete the entry with pKi for O=C1NCN(c2ccccc2)C12CCN(CCCOc1ccc(F)cc1)CC2 [SPIRAMIDE]
Found: 7.30

Lookup: Please indicate pKi recorded for Fc1ccc(OCCCN2CCC(Nc3ccccc3)CC2)cc1
Found: 6.92

Lookup: Please look at this compound and report its pKi: O=C1NCN(c2ccccc2)C12CCN(CCCCc1ccc(F)cc1)CC2
Found: 6.96

Provenance of the data: ChEMBL document CHEMBL1126779
